Values from PubChem BioAssay

Known inhibition of a selection of molecules
Assay Summary: 384-well plate pilot, post-Golgi transport modulator project, inhibition of yeast transport mutant growth (AID 636)
Measurement Context: absorbance 615 nm, about 18 h, stronger effect = higher value
Attribute Measured: inhibition (%)

- Molecule: "O=C(c1cnn2c1NC(c1ccco1)CC2C(F)(F)F)N1CCN(c2cccc(Cl)c2)CC1 (stereo not given)"
  Attribute Measured: "inhibition"
  Numeric Result: -6
- Molecule: "O=C(/C=C/c1ccccc1)c1ccccc1"
  Attribute Measured: "inhibition"
  Numeric Result: 1.95
- Molecule: "CCn1c(Cc2ccccc2)nnc1SCC(=O)Nc1nc2ccccc2s1"
  Attribute Measured: "inhibition"
  Numeric Result: -3.03
- Molecule: "CCN1C(=O)C(C(=O)Nc2ccc(OC)cc2)C2CC1(C)Oc1ccccc12 (stereo not given)"
  Attribute Measured: "inhibition"
  Numeric Result: -8.51
- Molecule: "O=C(CN1CCN(c2nc(-c3ccc(F)cc3)cs2)CC1)NCc1ccc2c(c1)OCO2"
  Attribute Measured: "inhibition"
  Numeric Result: -6.49

* * *

Assay Summary: reversal of MRP1-mediated doxorubicin resistance, pilot screen, H69AR cells, doxorubicin co-treatment (AID 601)
Measurement Context: H69AR cells + 2 uM doxorubicin, CellTiter-Glo, 72 h; measured here: viability with 2 uM doxorubicin; at 10 µM; stronger effect = lower value

- Compound: "COc1ccccc1C1/C(=C(/O)c2ccccc2)C(=O)C(=O)N1CC(C)C (stereo not drawn)"
  viability, %: 84.4
- Compound: "CN(C)c1ccc(C(=O)OCC(=O)NC2CCCCC2)cc1"
  viability, %: 82.9
- Compound: "C[C@H](CS)C(=O)N1CCC[C@H]1C(=O)O"
  viability, %: 91.6
- Compound: "OC(CN1CCOCC1)Cn1c(-c2cccc(Cl)c2)nc2ccccc21 (stereo not drawn)"
  viability, %: 66
- Compound: "CCCC1O[C@@H]2C[C@H]3[C@@H]4CCC5=CC(=O)C=C[C@]5(C)[C@H]4[C@@H](O)C[C@]3(C)[C@]2(C(=O)CO)O1 (stereo partly drawn)"
  viability, %: 79.1
- Compound: "COC(=O)c1[nH]c2ccc(C)cc2c1NC(=O)CN1CCN(C(=O)c2ccccc2)CC1"
  viability, %: 44.9
- Compound: "COc1ccc(S(=O)(=O)NCCOc2ccccc2)cc1OC"
  viability, %: 94.1
- Compound: "CCC(=O)OC1(C#CCOc2ccc(OC)cc2)CCN(C)CC1"
  viability, %: 103
- Compound: "O=C(c1ccncc1)N1CCN(C(=O)c2cccs2)CC1"
  viability, %: 89.1
- Compound: "CC1CCN(c2oc(-c3cccc4ccccc34)nc2C#N)CC1"
  viability, %: 82.3
- Compound: "O=C(O)C1CSC2c3ccccc3C(=O)N12 (stereo not drawn)"
  viability, %: 87.6
- Compound: "CC(C)CNS(=O)(=O)c1ccc(CCC(=O)NCc2ccco2)cc1"
  viability, %: 87.7
- Compound: "CCN(CC)C(=O)C1=C(C)NC(=O)NC1c1c(F)cccc1Cl (stereo not drawn)"
  viability, %: 87.2
- Compound: "CC(C)(C)n1nnnc1C(c1ccccc1)N1CCc2ccccc2C1 (stereo not drawn)"
  viability, %: 43.4
- Compound: "Cc1cc(C)c(S(=O)(=O)N(C)CC(N)=O)c(C)c1"
  viability, %: 104
- Compound: "CCN(CC)CCOC(=O)C(c1ccccc1)c1ccccc1"
  viability, %: 93.2
- Compound: "CCCCn1c(CN2CCN(CCO)CC2)nc2ccccc21"
  viability, %: 90.7
- Compound: "C[C@]12CC[C@@H]3c4ccc(OC(=O)c5ccccc5)cc4CC[C@H]3[C@@H]1CC[C@@H]2O"
  viability, %: 48
- Compound: "CCOC(=O)N1CCC(NC(=O)c2ccc3nc(N4CCOCC4)sc3c2)CC1"
  viability, %: 99.7
- Compound: "CCOC(=O)N1CCC(NC(=O)C2CCC(Cn3c(=O)[nH]c4ccccc4c3=O)CC2)CC1 (stereo not drawn)"
  viability, %: 24.6
- Compound: "CCCn1nc(CC(=O)O)c2ccccc2c1=O"
  viability, %: 94.7
- Compound: "N#CCOc1nc(N2CCOCC2)nc(N2CCOCC2)n1"
  viability, %: 91.8
- Compound: "COc1ccccc1-c1nc(C(F)(F)F)c(OC)o1"
  viability, %: 81.6
